B1: C10orf62 (parent)
chain: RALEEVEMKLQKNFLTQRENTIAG

variants of: B1; assay: protein stability index of a GFP-peptide fusion (GPS, HEK-293T) (PSI 1-6); higher = more stable; settings: c terminus: a fixed tail appended;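 further: lentivirally expressed fusions sorted by FACS into six bins by GFP to DsRed ratio, PSI derived from sequencing read proportions per bin multiplied by bin number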
I'd appreciate it if you could supply protein stability index values for the items below.
One number for each entry.

Field: example entries. Status: answers known.
R1Q
3.5
N13H
2.72
N20K
3.75
F14I
3.86
T16W
2.97

Report protein stability index for each item below.
1. T21S
2. N13S
3. L10T
4. T16C
5. G24S
6. L10C
7. A2T
8. T21I

1. 4.06
2. 3.52
3. 4.4
4. 3.24
5. 3.43
6. 3.58
7. 3.83
8. 3.34
